Target: rat-species vanilloid receptor 1 (VR1/TRPV1) (Rattus norvegicus, UniProt O35433)
Construct: endogenous in cells; host or cells: primary cells dissociated from rat dorsal root ganglia (DRG)
Sequence (O35433 whole entry): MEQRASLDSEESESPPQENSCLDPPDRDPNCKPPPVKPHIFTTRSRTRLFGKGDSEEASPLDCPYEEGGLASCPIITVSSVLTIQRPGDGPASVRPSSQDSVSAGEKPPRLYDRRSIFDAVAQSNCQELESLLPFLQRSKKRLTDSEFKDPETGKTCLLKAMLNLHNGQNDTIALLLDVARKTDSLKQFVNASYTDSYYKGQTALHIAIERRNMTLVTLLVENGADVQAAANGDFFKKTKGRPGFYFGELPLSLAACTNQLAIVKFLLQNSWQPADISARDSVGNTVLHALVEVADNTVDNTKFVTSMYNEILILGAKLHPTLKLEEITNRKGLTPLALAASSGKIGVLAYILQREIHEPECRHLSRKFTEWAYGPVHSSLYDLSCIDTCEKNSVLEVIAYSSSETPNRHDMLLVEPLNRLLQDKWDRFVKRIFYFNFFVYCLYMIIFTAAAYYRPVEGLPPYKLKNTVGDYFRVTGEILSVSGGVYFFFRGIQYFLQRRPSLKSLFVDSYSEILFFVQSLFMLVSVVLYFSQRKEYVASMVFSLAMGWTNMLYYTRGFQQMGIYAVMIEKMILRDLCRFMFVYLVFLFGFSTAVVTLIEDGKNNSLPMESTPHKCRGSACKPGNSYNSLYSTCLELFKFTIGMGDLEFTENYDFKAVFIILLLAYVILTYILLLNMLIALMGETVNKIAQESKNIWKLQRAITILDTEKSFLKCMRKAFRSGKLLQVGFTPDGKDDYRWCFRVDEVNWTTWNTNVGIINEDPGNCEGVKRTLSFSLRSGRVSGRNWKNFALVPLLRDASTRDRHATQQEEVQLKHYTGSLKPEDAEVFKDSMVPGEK
Assay: Functional testing on vanilloid receptor 1 (VR1/TRPV1): FLIPR Ca2+ inflow assay in rat dorsal root ganglia cells (% activation / % inhibition vs capsaicin)
Type: cell-based
Conditions: stimulation compared to 10 μM CP (capsaicin)
parameter: activation at 10 µM (%)

compound="CC(C)(C)c1ccc(C2=NOC3(CCN(C(=O)Nc4ccc(I)cc4)CC3)C2)cc1 [Compound 45]" parameter="activation at 10 µM" quantitativereadout=-0.73
compound="CC(C)(C)c1ccc(NC(=O)N2CCC3(CC2)CC(c2ccc(C(F)(F)F)cc2)=NO3)cc1 [Compound 145]" parameter="activation at 10 µM" quantitativereadout=-0.2
compound="CC(C)(C)c1ccc(CCC(=O)N2CCC3(CC2)CC(c2ccccc2)=NO3)cc1 [Compound 350]" parameter="activation at 10 µM" quantitativereadout=1
compound="FS(F)(F)(F)(F)c1ccc(NC(=S)N2CCC3(CC2)CC(c2ccccc2)=NO3)cc1 [Compound 330]" parameter="activation at 10 µM" quantitativereadout=1
compound="COc1cccc(C2=NOC3(CCN(C(=O)Nc4ccc(C(C)C)cc4)CC3)C2)c1 [Compound 77]" parameter="activation at 10 µM" quantitativereadout=3.81
compound="O=C(C#Cc1ccc(C(F)(F)F)cc1)N1CCC2(CC1)CC(c1ccccc1)=NO2 [Compound 363]" parameter="activation at 10 µM" quantitativereadout=0
compound="Cc1ccc(C2=NOC3(CCN(C(=O)Nc4ccc(C(C)C)cc4)CC3)C2)cc1 [Compound 81]" parameter="activation at 10 µM" quantitativereadout=-0.47
compound="CCc1ccc(NC(=O)N2CCC3(CC2)CC(c2ccccc2)=NO3)cc1 [Compound 163]" parameter="activation at 10 µM" quantitativereadout=-0.43
compound="O=C(Nc1ccc(C(F)(F)F)cc1)N1CCC2(CC1)CC(c1cccc(F)c1)=NO2 [Compound 348]" parameter="activation at 10 µM" quantitativereadout=3
compound="CC(C)(C)c1ccc(NC(=O)N2CCC3(CC2)CC(c2ncccc2Cl)=NO3)cc1 [Compound 329]" parameter="activation at 10 µM" quantitativereadout=71
compound="CC(C)(C)c1ccc(C(/C=C/c2ccccc2)=C/C(=O)N2CCC3(CC2)CC(c2ccccc2)=NO3)cc1 [Compound 337]" parameter="activation at 10 µM" quantitativereadout=1
compound="CC1CN(C(=O)/C=C/c2ccc(C(F)(F)F)nc2N2CCCCC2)CCC12CC(c1ccccc1)=NO2 (stereo not shown) [Compound 367]" parameter="activation at 10 µM" quantitativereadout=-1
compound="COc1cccc(C2=NOC3(CCN(C(=O)Nc4cccc(F)c4)CC3)C2)c1 [Compound 174]" parameter="activation at 10 µM" quantitativereadout=-0.28
compound="COc1cccc(C2=NOC3(CCN(C(=O)Nc4ccc(C(F)(F)F)cc4)CC3)C2)c1 [Compound 210]" parameter="activation at 10 µM" quantitativereadout=0.22
compound="O=C(/C=C/c1ccc(C(F)(F)F)nc1N1CCCCC1)N1CCC2(CC1)CC(c1cccc(Cl)c1)=NO2 [Compound 356]" parameter="activation at 10 µM" quantitativereadout=0
compound="CCCc1ccccc1NC(=O)N1CCC2(CC1)CC(c1ccccc1)=NO2 [Compound 22]" parameter="activation at 10 µM" quantitativereadout=-0.73
